Measured HDAC6 selectivity (fold) by item
# TEST_SYSTEM: human recombinant HDAC6 (Homo sapiens)
# Construct: purchased Calbiochem Inc. 382180
# ASSAY_COMMENT: In vitro HDAC enzyme activity inhibition assay (HDAC6)
# Assay type: biochemical
# CONDITION_SUMMARY: HDAC6 over HDAC1
# Experimental: In order to confirm the selectivity of the compounds represented by Chemical Formula I of the present invention to HDAC6 through HDAC1 and HDAC6 enzyme activity inhibition experiments, a comparison experiment was performed using the material that has already been developed as a control group. HDAC enzyme activity was measured using the HDAC Fluorimetric Drug Discovery Kit (Enzo Life Sciences, Inc., BML-AK511, 516). […]
Respond with the bare value in fold.

>>> experimental_value("O=C(N1CCC(S(=O)(=O)N(Cc2cn3ccc(-c4nnc(C(F)F)o4)cc3n2)c2cccc(F)c2)CC1)C(F)(F)F")
431
>>> experimental_value("O=C(CO)N1CCN(S(=O)(=O)N(Cc2cn3ccc(-c4nnc(C(F)F)o4)cc3n2)c2ccccc2)CC1")
524

Query string: # get_value(readout='HDAC6 selectivity (fold)', item= CN(C)C(=O)N1CCC(S(=O)(=O)N(Cc2cn3ccc(-c4nnc(C(F)F)o4)cc3n2)c2cccc(F)c2)CC1 )
Result string: 503

* * *

# TEST_SYSTEM: human recombinant HDAC6 (Homo sapiens, UniProt Q9UBN7)
# Sequence (Q9UBN7 whole entry): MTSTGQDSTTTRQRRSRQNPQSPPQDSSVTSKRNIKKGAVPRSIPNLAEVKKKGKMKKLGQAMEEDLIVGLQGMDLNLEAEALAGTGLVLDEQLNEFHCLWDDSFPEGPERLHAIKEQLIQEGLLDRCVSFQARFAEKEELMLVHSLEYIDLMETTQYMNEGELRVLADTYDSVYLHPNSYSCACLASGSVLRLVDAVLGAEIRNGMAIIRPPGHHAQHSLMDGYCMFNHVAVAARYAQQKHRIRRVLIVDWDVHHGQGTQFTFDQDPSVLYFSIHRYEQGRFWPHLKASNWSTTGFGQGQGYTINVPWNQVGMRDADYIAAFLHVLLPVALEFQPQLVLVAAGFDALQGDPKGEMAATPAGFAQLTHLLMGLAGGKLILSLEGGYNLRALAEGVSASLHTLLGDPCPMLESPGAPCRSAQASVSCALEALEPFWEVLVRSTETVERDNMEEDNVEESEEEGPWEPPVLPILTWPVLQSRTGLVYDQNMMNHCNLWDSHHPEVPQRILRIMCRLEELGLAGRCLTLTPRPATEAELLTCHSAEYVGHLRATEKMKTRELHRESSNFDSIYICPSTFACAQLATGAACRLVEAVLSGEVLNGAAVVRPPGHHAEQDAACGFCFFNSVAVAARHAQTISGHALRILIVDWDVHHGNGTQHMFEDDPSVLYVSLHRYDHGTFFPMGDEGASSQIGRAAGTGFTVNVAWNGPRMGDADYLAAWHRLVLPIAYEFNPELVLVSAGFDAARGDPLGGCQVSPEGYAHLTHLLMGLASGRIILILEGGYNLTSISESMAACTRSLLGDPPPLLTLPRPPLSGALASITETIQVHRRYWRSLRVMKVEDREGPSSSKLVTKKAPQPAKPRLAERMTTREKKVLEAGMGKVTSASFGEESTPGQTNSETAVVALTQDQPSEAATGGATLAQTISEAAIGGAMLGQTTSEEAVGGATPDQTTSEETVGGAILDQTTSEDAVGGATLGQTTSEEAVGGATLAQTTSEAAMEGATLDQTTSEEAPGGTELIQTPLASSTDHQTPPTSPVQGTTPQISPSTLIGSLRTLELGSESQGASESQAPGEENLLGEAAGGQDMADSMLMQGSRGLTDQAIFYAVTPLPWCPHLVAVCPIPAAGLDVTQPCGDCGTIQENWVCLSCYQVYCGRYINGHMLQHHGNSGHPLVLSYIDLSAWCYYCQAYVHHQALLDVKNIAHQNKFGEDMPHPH
# ASSAY_COMMENT: In vitro HDAC enzyme activity inhibition assay (HDAC6)
# CONDITION_SUMMARY: same protocol as the HDAC1 test, human recombinant HDAC6 (Calbiochem)
Below is a list of entries, each paired with its recorded pIC50 value.
Scale: pIC50 equals -log10([C]), with [C] in mol/L.

Example entries and their recorded answers appear below.
>>> experimental_value("O=C(C1COC1)N1CCC(S(=O)(=O)N(Cc2cn3ccc(-c4nnc(C(F)F)o4)cc3n2)c2cccc(F)c2)CC1")
7.14
>>> experimental_value("O=S(=O)(C1CCN(C2CCC2)CC1)N(Cc1cn2ccc(-c3nnc(C(F)F)o3)cc2n1)c1cccc(F)c1")
7.27

Query string: # lookup: pIC50 of CC(=O)N1CCC(S(=O)(=O)N(Cc2cn3ccc(-c4nnc(C(F)F)o4)cc3n2)c2ccccc2)CC1
Result string: 6.86

Query string: Entry CN(C)C(=O)N1CCN(S(=O)(=O)N(Cc2cn3ccc(-c4nnc(C(F)F)o4)cc3n2)c2ccccc2)CC1 please
Result string: 6.92

* * *

# TEST_SYSTEM: human recombinant HDAC6 (Homo sapiens, UniProt Q9UBN7)
# ASSAY_COMMENT: In vitro HDAC enzyme activity inhibition assay (HDAC6)
# CONDITION_SUMMARY: same protocol as the HDAC1 test, human recombinant HDAC6 (Calbiochem)
# Experimental: In order to confirm the selectivity of the compounds represented by Chemical Formula I of the present invention to HDAC6 through HDAC1 and HDAC6 enzyme activity inhibition experiments, a comparison experiment was performed using the material that has already been developed as a control group. HDAC enzyme activity was measured using the HDAC Fluorimetric Drug Discovery Kit (Enzo Life Sciences, Inc., BML-AK511, 516). […]
ASSAY_READOUT: IC50 (µM)
Quick note: give the figure in µM, leave out the unit.

The cases that follow already have their IC50 on record.
>>> experimental_value("O=S(=O)(C1CCN(C2CC3(COC3)C2)CC1)N(Cc1cn2ccc(-c3nnc(C(F)F)o3)cc2n1)c1cccc(F)c1")
0.075
>>> experimental_value("COC(=O)N1CCN(S(=O)(=O)N(Cc2cn3ccc(-c4nnc(C(F)F)o4)cc3n2)c2cccc(F)c2)CC1")
0.135
>>> experimental_value("O=C(C1CCC1)N1CCN(S(=O)(=O)N(Cc2cn3ccc(-c4nnc(C(F)F)o4)cc3n2)c2ccccc2)CC1")
0.129
>>> experimental_value("CN1CCN(S(=O)(=O)N(Cc2cn3ccc(-c4nnc(C(F)F)o4)cc3n2)c2cccc(F)c2)CC1")
0.0892

Query string: Param readout= IC50; system= human recombinant HDAC6 (Homo sapiens, UniProt Q9UBN7); entry= CC(C)N1CCC(S(=O)(=O)N(Cc2cn3ccc(-c4nnc(C(F)F)o4)cc3n2)c2cccc(F)c2)CC1 ; returns value.
Result string: 0.0766

Ref: patent US12466827B2
